- Tested on: MS2 coat protein
- measurement_notes: apparent KD of MS2 coat protein; designed switch direction (-1 OFF switch, 1 ON switch): -1; higher = weaker reporter binding
- measurement_setup: input ligand: none

[
  {
    "sequence_code": "ACAAGCUAACUCAUAUCUUACAUGAGGAUCACCCAUGUUUUUUCAAUUUUGUUUGGUCUCCUUUGUGCUCGUCUUAU [JR_STOV1_Sub052] (Eterna round: R97, puzzle: Sensor, turn-off variant 1)",
    "apparent KD of MS2 coat protein, nM": 64.9
  },
  {
    "sequence_code": "AGUCGAAAGAUCCACAUGGACAUGAGGAUCACCCAUGUGCAAGCCUUUUUCUCGUCACUAUCGUCAAAAGACGAUAG [Omei Mir Offv1 A6] (Eterna round: R97, puzzle: Sensor, turn-off variant 1)",
    "apparent KD of MS2 coat protein, nM": 234
  },
  {
    "sequence_code": "GGAUUGCGGCAAGGAUAUCUUUGUCAACAUAAAACAUGAGGAUCACCCAUGUGCAUCUUCGUGUGAGAGAAGGUGCGGCGAUCC [Geceretima] (Eterna round: R96, puzzle: Exclusion NG 2)",
    "apparent KD of MS2 coat protein, nM": 180
  },
  {
    "sequence_code": "AAAUAGCUUGAGGAUAUUGGAUAGGAUUUAGUGCGAGAAGGCAAGACAUGAGGAUCACCCAUGUUGUGUUGGGA [EX6 #13] (Eterna round: R97, puzzle: Exclusion 6)",
    "apparent KD of MS2 coat protein, nM": 36.4
  },
  {
    "sequence_code": "UUUUGUUUGCGAGGAUAUGCUUUUAGUAAGUUAGCAGAAGGCGCGUUACAUAGAACCUCUUGUUACAUGAGGAUCACCCAUGUU [JR_ExcNG1_Sub036] (Eterna round: R96, puzzle: Exclusion NG 1)",
    "apparent KD of MS2 coat protein, nM": 168
  },
  {
    "sequence_code": "ACAUGUUAUGUAGGAUAUUGGACACAUGAGGAUCACCCAUGUACCCGGAGGCUUUACUAUGAGUUCGAGAAGGGUAUGUACAUG [Ex NG2 #69] (Eterna round: R96, puzzle: Exclusion NG 2)",
    "apparent KD of MS2 coat protein, nM": 47.1
  },
  {
    "sequence_code": "CAUUAGCAAGCGAGAUCCCACAUGAGGAUCACCCAUGUGCUCGUCUUAUAAGGUACUGUGACGAGAGUCACGGUACC [Mat - Sensor, turn-off var - Eli Mod - D42] (Eterna round: R97, puzzle: Sensor, turn-off variant 1)",
    "apparent KD of MS2 coat protein, nM": 16.1
  },
  {
    "sequence_code": "UUUACAAGCUUAAGAUCCCACAUGAGGAUCACCCAUGUUGCUGCCGGUGACGGUAGCAUAACUUAUGCUCGUCUUAU [JL TOV1 3.60] (Eterna round: R97, puzzle: Sensor, turn-off variant 1)",
    "apparent KD of MS2 coat protein, nM": 188
  },
  {
    "sequence_code": "GUUAUGUCAGGAUAUGCUAAUGAUGAAUGAUCAGACAUGAUGUAGAAGGGACAUGAGGAUCACCCAUGUAAUAU [EX4 #7] (Eterna round: R97, puzzle: Exclusion 4)",
    "apparent KD of MS2 coat protein, nM": 25
  }
]
